B1: C8orf76 (parent)
chain: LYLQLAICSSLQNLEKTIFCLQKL

Variants of: B1
PROTOCOL NOTES: protein stability index of a GFP-peptide fusion (GPS, HEK-293T) (PSI 1-6); higher = more stable;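 further: lentivirally expressed fusions sorted by FACS into six bins by GFP to DsRed ratio, PSI derived from sequencing read proportions per bin multiplied by bin number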
APPLIED CONDITIONS: c terminus: a fixed tail appended
Is protein stability index at least 3? Then Fulfilled. If not, Not fulfilled.

QUERY: State whether the measured protein stability index reaches 3, counting equality as reaching it, for "Q4M"
RESULT: Fulfilled

QUERY: State whether the measured protein stability index reaches 3, counting equality as reaching it, for "Q12G"
RESULT: Not fulfilled

QUERY: State whether the measured protein stability index reaches 3, counting equality as reaching it, for "L24S"
RESULT: Not fulfilled

QUERY: State whether the measured protein stability index reaches 3, counting equality as reaching it, for "L11T"
RESULT: Not fulfilled

QUERY: State whether the measured protein stability index reaches 3, counting equality as reaching it, for "Q12A"
RESULT: Not fulfilled
